# melting point per record follows

# input Which melting point is listed for O=S(=O)(CCCCl)Nc1cccc(Oc2cccc3cccnc23)c1 ?
# output 138 to 140 °C

# input Which melting point is listed for O=C(O)c1ccc(CC(NC(=O)C(c2ccccc2)c2ccccc2)c2ccccc2)cc1 (stereo not given) ?
# output 245 to 248 °C

# input Which melting point is listed for O=C(O)c1csc(NC(=O)C(CC2CCCC2)c2ccc(Cl)c(Cl)c2)n1 (stereo not given) ?
# output 285 to 287 °C

# input Which melting point is listed for CCCCCOc1ccc(CCOc2ccc(/C=C(\OCC)C(=O)O)cc2OCCCC)cc1Cl ?
# output 95 °C

# input Which melting point is listed for Oc1ncnc2c(-c3ccc(Cc4ccc(Cl)cc4)cc3)cnn12 ?
# output 292 to 296 °C

----------
# melting point per record follows

Example compounds with recorded melting point:
# input Which melting point is listed for Cc1ccc(-c2c3c(cc4ccc5c(c24)OCO5)C(=O)NC3=O)cc1 ?
# output 297 to 299 °C

# input Which melting point is listed for COC(=O)/C(=N/NC(N)=O)c1ccc(OCCOc2ccc3ccccc3c2)cc1 ?
# output 132 to 134 °C

# input Which melting point is listed for COC(=O)c1nc(-c2ccc(Cl)cc2)n(-c2ccc(Cl)cc2Cl)n1 ?
# output 153 to 154 °C

Continuing:
# input Which melting point is listed for CN1CCc2c(c3ccccc3n2CCC#N)C1 ?
# output 108 to 110 °C

# input Which melting point is listed for Cc1ccc(-c2[nH]c(-c3ccccc3)nc2C(=O)Nc2nc3ccccc3s2)cc1 ?
# output 269 to 270 °C

# input Which melting point is listed for CCCn1nnn(-c2cc(OS(C)(=O)=O)c(Cl)cc2Cl)c1=O ?
# output 64 to 65 °C

# input Which melting point is listed for CC(C)N1Cc2ccccc2P1(=O)c1ccccc1 (stereo not given) ?
# output 92 to 94 °C

----------
# melting point per record follows

Example molecules with recorded melting point:
# input Which melting point is listed for CCOC(=O)c1cn(CC(I)=C(I)I)c(Cl)c1Cl ?
# output 117 to 119 °C

# input Which melting point is listed for CCCCCCCCCCCCCCOc1ccc(C(=O)Cl)cc1OCCCCCCCCCCCCCC ?
# output 68 to 70 °C

# input Which melting point is listed for NC[C@@H](O)[C@H](Cc1ccccc1)N(Cc1ccccc1)Cc1ccccc1 ?
# output 72 to 76 °C

# input Which melting point is listed for CCN1CCN(C(=O)OC2C3=C(SCCS3)C(=O)N2c2ccc(Cl)cn2)CC1 (stereo not given) ?
# output 140 °C

# input Which melting point is listed for COc1cc2c(c(O)c1C)COC(C)C2 (stereo not given) ?
# output 143 to 145 °C

# input Which melting point is listed for COc1cc2nc(S(=O)Cc3ncc(C)c(N(C)C)c3Cl)[nH]c2cc1OC (stereo not given) ?
# output 174 to 175 °C

Continuing:
# input Which melting point is listed for CCOC(=O)C(=O)Nc1ccc(Oc2ccc(NC(=O)C(=O)OCC)cc2)cc1 ?
# output 150 to 158 °C

# input Which melting point is listed for COC(=O)CCNC(=O)C1CCCN1S(=O)(=O)c1ccc(Cl)c(COc2cccc3c(C)cc(C)nc23)c1Cl (stereo not given) ?
# output 64 to 67 °C

# input Which melting point is listed for Cc1ccc(C(O)(c2ccc(C)cc2)C2CCNCC2)cc1 ?
# output 150 to 153 °C

# input Which melting point is listed for C=CCNc1nc(NCc2ccccc2)c2cc([N+](=O)[O-])ccc2n1 ?
# output 235 to 236 °C

Just for reference, a melting point compilation (Tetko et al.; mined from patent text by program, amines drawn as free bases though some values may be those of a salt) is where these values come from.
